Cited source: paper PMC10397247

# target-system: T1, 4H918-bA
# T1 chain: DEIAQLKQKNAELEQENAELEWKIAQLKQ
# assay-comment: two-hybrid library CCNG1;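 also: natural log of median RNA to DNA barcode read ratio; higher means stronger binding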
measured-property: interaction score
Just the number, please.

// interaction score lookup, key: DENAQLKQKIAELEQKIAELEWKNAQLEQ [4H1831-bA]
-0.817

// query: DEIAQLEQKIAELKQENAELKWEIAQLKQ [4H346-bA]
-0.428

// query: DKIAQLKQEIAELEQKNAELKWEIAQLKQ [4H2618-bA]
1.61

// query: DEIAQLKQEIAELEQKNAELKWKNAQLEQ [4H575-bA]
0.24
